Test system: LOC_OS01G10900-cb004;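 also: purified Escherichia coli-expressed rice kinase domain construct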
Experiment: thermal shift delta Tm vs DMSO control; higher = stronger stabilization (binding)
Details: 12.5 µM; protein concentration 2 µM
measurement-type: thermal shift delta Tm (°C)

| molecule | measurement-type | measure-unit | measured |
| --- | --- | --- | --- |
| CCCCCCCCCC(=O)CC(O)S(=O)(=O)O (stereo not given) [Sodium Houttuyfonate] | thermal shift delta Tm | °C | 3.08 |
| CCn1c(N)c(C(=O)NC)c(=O)c2ccc(C#CC(C)(O)COC)nc21 (stereo not given) | thermal shift delta Tm | °C | -0.01 |
| C[C@@H](NC(=O)c1ncnc(N)c1Cl)c1ncc(C(=O)Nc2cc(C(F)(F)F)c(Cl)cn2)s1 | thermal shift delta Tm | °C | 2.82 |
| O=c1cc(N2CCOCC2)oc2c(-c3ccccc3)cccc12 | thermal shift delta Tm | °C | 3.69 |
| Cn1cc(/C=C2\C(=O)Nc3cccnc32)c2ccccc21 | thermal shift delta Tm | °C | 1.42 |
